Tested on: male rats
Assay: Plasma metabolite profiling (GC-MS, LC-MS, SPE-LC-MS) in male rats dosed once daily over 28 days (OECD 407)
Type: in vivo, rat
Details: m14; high dose; Table 14b
Structures can show the parent of a compound that is named as a salt.
For each record, check the reported Cholesterol: if it is below 0.5 write met, else write not met.

Example entries and their recorded answers appear below.
C[C@]12C=CC3=C4CCC(=O)C=C4CCC3C1CC[C@@H]2O (stereo partly drawn) [Trenbolone] : met
C[C@]12CCC(=O)C=C1CC[C@@H]1[C@@H]2CC[C@@]2(C)[C@H]1CC[C@]2(C)O [17-alpha-Methyltestosterone] : met
OCCNCCO [Diethanolamine] : not met

Decide: Cholesterol of C#C[C@]1(O)CC[C@H]2[C@@H]3CCc4cc(O)ccc4[C@H]3CC[C@@]21C [17-alpha-Ethynylestradiol] strictly below 0.5? met

Decide: Cholesterol of O=C(c1ccc(OCCN2CCCCC2)cc1)c1c(-c2ccc(O)cc2)sc2cc(O)ccc12 [Raloxifene Hydrochloride] strictly below 0.5? met
